Biological target: P2X7 (UniProt Q99572)
Assay: pIC50 values for P2X7 (Table 1)
Format: cell-based
Method: Intracellular Calcium Flux (FLIPR) Assay Compound and Reagent Preparation Stock solutions of compounds were prepared from powders as a 10 mM DMSO stock solution. These solutions were stored at RT during the two week period of these experiments to prevent freeze-thaw of the DMSO stocks. The DMSO stocks were added to the appropriate assay buffer at a concentration of 10 μM, and then diluted serially to the final concentrations that were tested. […]
Assign class by pIC50: not lower than 7 means fulfilled; lower than 7 means not fulfilled.

As a guide, the following entries are already answered.
                                   molecule  assigned_label
0  COc1cc(NC(=O)N2C=CC(=O)C[C@H]2c2ccc(F)cc2)c(Br)cc1C#N [Compound 63]   not fulfilled
1  COc1ccc(NC(=O)N2C=CC(=O)CC2c2ccc(F)cc2)c(OC)c1 (centres unmarked) [Compound 69]   not fulfilled
2  COc1cc(NC(=O)N2C=CC(=O)C[C@H]2c2ccc(F)cc2)ccc1Cl [Compound 71]   not fulfilled
3  CCc1c(NC(=O)N2C=CC(=O)C[C@H]2c2ccc(F)cc2)ccc2ncccc12 [Compound 149]       fulfilled
4  O=C1C=CN(C(=O)Nc2ccc3ncsc3c2)C(c2ccc(F)cc2)C1 (centres unmarked) [Compound 117]   not fulfilled
5  Cc1ccc(NC(=O)N2C=CC(=O)C[C@H]2c2ccc(F)cc2)cc1 [Compound 137]   not fulfilled
6  CNC(=O)c1cccc(NC(=O)N2C=CC(=O)C[C@H]2c2ccc(F)cc2)c1C [Compound 141]   not fulfilled
7  COC(=O)c1cc(NC(=O)N2C=CC(=O)C[C@H]2c2ccc(F)cc2)c(Br)cc1Cl [Compound 27]       fulfilled
8  O=C1C=CN(C(=O)Nc2cc3c(cc2Br)OCCO3)[C@H](c2ccc(F)cc2)C1 [Compound 136]       fulfilled
9  COC(=O)COc1cc(N(CC(=O)OC)C(=O)N2C=CC(=O)C[C@H]2c2ccc(F)cc2)c(Br)cc1Cl [Compound 31]   not fulfilled

Is pIC50 for COc1cc(NC(=O)N2C=CC(=O)CC2c2ccccc2F)c(Br)cc1C (centres unmarked) [Compound 41] at or above 7? not fulfilled

Is pIC50 for O=C1C=CN(C(=O)Nc2ccc3ncccc3c2Br)[C@H](c2ccc(F)cc2)C1 [Compound 106] at or above 7? fulfilled

Is pIC50 for COc1cc(NC(=O)N2C=CC(=O)C[C@H]2c2cccc(F)c2)c(Br)cc1OC(F)F [Compound 46] at or above 7? fulfilled

###

Each entry below carries its recorded pIC50.
target: P2X7 (UniProt Q99572); test: pIC50 values for P2X7 (Table 1); type: cell-based

Solved entries (count: 2):
                                   compound  result_type  experimental_result
0  Cc1cc2c(cc1NC(=O)N1C=CC(=O)C[C@H]1c1ccc(F)cc1)OCCN2C        pIC50                7.825
1  Cc1cc(C)cc(NC(=O)N2C=CC(=O)C[C@H]2c2ccc(F)cc2)c1        pIC50                7.655

# compound Cc1cc(NC(=O)N2C=CC(=O)CC2c2ccc(F)cc2)n(C)n1 (centres unmarked) ; its pIC50 = 6.043

# compound Cc1c2ccc(NC(=O)N3C=CC(=O)C[C@H]3c3ccc(F)cc3)cc2nn1C ; its pIC50 = 5.615

# compound COc1cc(NC(=O)N2C=CC(=O)C[C@H]2c2ccc(F)cc2)c(Br)cc1C(N)=O ; its pIC50 = 5.78

# compound Cc1nn(C)c2cc(NC(=O)N3C=CC(=O)C[C@H]3c3ccc(F)cc3)ccc12 ; its pIC50 = 6.535

# compound CSc1cc(NC(=O)N2C=CC(=O)C[C@H]2c2ccc(F)cc2)c(Br)cc1Cl ; its pIC50 = 6.726

# compound COc1cc(NC(=O)N2C=CC(=O)C[C@H]2c2ccc(F)cc2)c(Br)cc1Cl ; its pIC50 = 7.4325

From: patent US8153809B2
